System: HT-29
protocolDetails: Tested for cytotoxic activity against HT-29 human colon adenocarcinoma cells in MTT assay
Format: functional, cell-based
readoutLabel: IC50 (µM)
Note: unit µM is implicit; provide only the numeric part.

Item CC(=O)[C@]1(C)C(=O)O[C@@H](OC(=O)c2ccccc2)[C@H]1C has what recorded IC50?
6

Same again, this time with CC(=O)O[C@@H]1OC(=O)[C@@](C)(C(=O)c2ccccc2)[C@@H]1C
7

Same again, this time with CC(=O)O[C@@H]1OC(=O)[C@](OC(=O)c2ccccc2)(C(C)=O)[C@@H]1C
8

Same again, this time with CC(=O)[C@@]1(C)C(=O)O[C@@H](OC(=O)C(C)(C)C)[C@H]1C
2

Same again, this time with CC(=O)[C@@]1(C)C(=O)O[C@@H](OC(=O)c2ccccc2)[C@H]1C
1

Same again, this time with CC(=O)O[C@@H]1OC(=O)[C@](Br)(C(C)=O)[C@@H]1C
12

Same again, this time with CC(=O)O[C@@H]1OC(=O)[C@](C)(C(C)=O)[C@@H]1C
5

Same again, this time with CC(=O)CC[C@]1(C(C)=O)C(=O)O[C@@H](OC(C)=O)[C@H]1C
7

Same again, this time with CC(=O)[C@]1(C)C(=O)O[C@@H](OC(=O)C(C)(C)C)[C@H]1C
9

Same again, this time with CC(=O)O[C@@H]1OC(=O)[C@@](Cc2ccccc2)(C(C)=O)[C@@H]1C
39

Same again, this time with CC(=O)O[C@@H]1OC(=O)[C@](Cc2ccccc2)(C(C)=O)[C@@H]1C
40

Same again, this time with CC(=O)O[C@@H]1OC(=O)[C@@](C)(C(C)=O)[C@@H]1C
12

Same again, this time with CC(=O)O[C@@H]1OC(=O)[C@](C)(C(=O)CBr)[C@@H]1C
6

---

Tested on: DA-3 cell line
protocolDetails: Tested for cytotoxic activity against DA-3 mouse mammary adenocarcinoma cells in MTT assay
Format: functional, cell-based
readoutLabel: pIC50
The quantity pIC50 is defined as the negative base-10 logarithm of the molar concentration.

Item CC(=O)[C@]1(C)C(=O)O[C@@H](OC(=O)C(C)(C)C)[C@H]1C has what recorded pIC50?
5.40

Same again, this time with CC(=O)CC[C@]1(C(C)=O)C(=O)O[C@@H](OC(C)=O)[C@H]1C
5.10

Same again, this time with CC(=O)O[C@@H]1OC(=O)[C@](OC(=O)c2ccccc2)(C(C)=O)[C@@H]1C
5.52

Same again, this time with CC(=O)[C@@]1(C)C(=O)O[C@@H](OC(=O)C(C)(C)C)[C@H]1C
6.00

Same again, this time with CC(=O)[C@]1(C)C(=O)O[C@@H](OC(=O)c2ccccc2)[C@H]1C
5.70

Same again, this time with CC(=O)O[C@@H]1OC(=O)[C@](C)(C(=O)CBr)[C@@H]1C
5.40

---

Test system: DA-3 cell line
protocolDetails: Tested for cytotoxic activity against DA-3 mouse mammary adenocarcinoma cells in MTT assay
Format: functional, cell-based
readoutLabel: pIC50
The quantity pIC50 is defined as the negative base-10 logarithm of the molar concentration.

Item CC(=O)[C@@]1(C)C(=O)O[C@@H](OC(=O)c2ccccc2)[C@H]1C has what recorded pIC50?
6.00

Same again, this time with CC(=O)O[C@@H]1OC(=O)[C@](C)(C(C)=O)[C@@H]1C
5.15

Same again, this time with CC(=O)O[C@@H]1OC(=O)[C@@](C)(C(=O)c2ccccc2)[C@@H]1C
4.82

Same again, this time with CC(=O)O[C@@H]1OC(=O)[C@](Br)(C(C)=O)[C@@H]1C
5.22

Same again, this time with CC(=O)O[C@@H]1OC(=O)[C@@](Cc2ccccc2)(C(C)=O)[C@@H]1C
4.36

Same again, this time with CC(=O)O[C@@H]1OC(=O)[C@](Cc2ccccc2)(C(C)=O)[C@@H]1C
4.35

Same again, this time with CC(=O)O[C@@H]1OC(=O)[C@@](C)(C(C)=O)[C@@H]1C
5.05

---

Give measured pIC50 for each item. Keep answers brief.
System: DA-3 cell line
protocolDetails: Tested for cytotoxic activity against DA-3 mouse mammary adenocarcinoma cells in MTT assay
Format: functional, cell-based
pIC50: −log10 of the molar value.

// lookup pIC50 | system=DA-3 cell line | key= CC(=O)O[C@@H]1OC(=O)[C@@](C)(C(C)=O)[C@@H]1C(C)C
< 4.30

Same again, this time with CCO[C@@H]1OC(=O)[C@@](C)(C(C)=O)[C@@H]1C
< 4.30

Same again, this time with CC(=O)O[C@@H]1OC(=O)[C@@](O)(C(C)=O)[C@@H]1C
< 4.30
